TEST: Single-dose toxicokinetic study in dogs
Type: in vivo
CONDITION_CONTEXT: female, dog, plasma, po, 800 mg/kg
PROPERTY_LABEL: Tmax (h)
The response must be a number in h with no trailing unit.

Value of Tmax reported for the molecule C=C(C)c1ccc(CC(=O)N[C@H](C)c2ccc(OCC(F)(F)F)cn2)cc1 [M01] is 8

Per the record, CC(C(=O)O)c1ccc(CC(=O)N[C@H](C)c2ccc(OCC(F)(F)F)cn2)cc1 (stereo partly drawn) [M03] has Tmax of 8

Value of measured Tmax for the entry C[C@@H](NC(=O)Cc1ccc(C(C)(C)O)cc1)c1ccc(OCC(F)(F)F)cn1 [M02] : 8

---

TEST: 4-week oral toxicology in rats (with FOB)
CONDITION_CONTEXT: male, rat, in vivo, oral
PROPERTY_LABEL: NOAEL at 4 weeks (mg/kg/day)
Respond with the bare value in mg/kg/day.

Input CC(C)c1ccc(CC(=O)N[C@H](C)c2ccc(OCC(F)(F)F)cn2)cc1 . Output NOAEL at 4 weeks: 30

---

TEST: Pharmacokinetics in dogs
Format: in vivo, dog
CONDITION_CONTEXT: dog, plasma, po, 0.5 mg/kg; single dose
PROPERTY_LABEL: bioavailability
Provide a numeric answer, followed by its unit.

Briefly, bioavailability measured for CC(C)c1ccc(CC(=O)N[C@H](C)c2ccc(OCC(F)(F)F)cn2)cc1 : 76%

---

TEST: in vivo
CONDITION_CONTEXT: female, rat, po, 500 mg/kg/day
PROPERTY_LABEL: AUC (µM·h)
Number only, in µM·h; omit the unit.

# AUC (compound: CC(C)c1ccc(CC(=O)N[C@H](C)c2ccc(OCC(F)(F)F)cn2)cc1 ) is 219

---

TEST: In vitro plasma protein binding, human
Assay type: in vitro ADME
CONDITION_CONTEXT: human plasma, read-out: In vitro plasma protein binding (converted)
PROPERTY_LABEL: fraction unbound

Record summary for CC(C)c1ccc(CC(=O)N[C@H](C)c2ccc(OCC(F)(F)F)cn2)cc1 : reported fraction unbound = ~0.004

Record C=C(C)c1ccc(CC(=O)N[C@H](C)c2ccc(OCC(F)(F)F)cn2)cc1 , field fraction unbound: < 0.001

Record C[C@@H](NC(=O)Cc1ccc(C(C)(C)O)cc1)c1ccc(OCC(F)(F)F)cn1 , field fraction unbound: 0.14

---

TEST: In vitro plasma protein binding, dog
Assay type: in vitro ADME
CONDITION_CONTEXT: dogs, read-out: free fraction
PROPERTY_LABEL: fraction unbound

// sample C=C(C)c1ccc(CC(=O)N[C@H](C)c2ccc(OCC(F)(F)F)cn2)cc1 [M01] , its fraction unbound was 0.003

Value of measured fraction unbound for the entry C[C@@H](NC(=O)Cc1ccc(C(C)(C)O)cc1)c1ccc(OCC(F)(F)F)cn1 [M02] : 0.18

Reported fraction unbound for CC(C)c1ccc(CC(=O)N[C@H](C)c2ccc(OCC(F)(F)F)cn2)cc1 [CX-8998] was 0.003

---

TEST: Phase 1 multiple-dose pharmacokinetics (PN002/Part II)
CONDITION_CONTEXT: human, plasma, 2 mg, AUC24, M01, Day 7, CX-8998 2 mg once daily
PROPERTY_LABEL: AUC (µM·h)
Express it in µM·h; write the number only.

Per the record, C=C(C)c1ccc(CC(=O)N[C@H](C)c2ccc(OCC(F)(F)F)cn2)cc1 [M01] has AUC of 1.52

---

Exercise: state measured Cmax for each of the molecules provided.
TEST: in vivo
CONDITION_CONTEXT: female, rat, po, 10 mg/kg/day

For C=C(C)c1ccc(CC(=O)N[C@H](C)c2ccc(OCC(F)(F)F)cn2)cc1 the molecule record lists Cmax as 2.66 µM

Recorded Cmax (molecule C[C@@H](NC(=O)Cc1ccc(C(C)(C)O)cc1)c1ccc(OCC(F)(F)F)cn1 ): 5.4 µM

---

TEST: Phase 1 single-dose pharmacokinetics (PN001, PN002/Part I, PN003, PN005)
Type: in vivo, human
CONDITION_CONTEXT: male, human, plasma, oral, 18 mg, PN002 Part 1, 18 mg, 1 dose; read-out: Cmax
PROPERTY_LABEL: Cmax (nM)
Record the value in nM, omitting the unit from your answer.

Measured Cmax of CC(C)c1ccc(CC(=O)N[C@H](C)c2ccc(OCC(F)(F)F)cn2)cc1 : 1330

---

Can you tell me AUC for the items I'm about to list?
TEST: in vivo
CONDITION_CONTEXT: female, rat, po, 10 mg/kg/day
Report as a plain number; the unit µM·h is understood.

Per the records, this molecule ( C=C(C)c1ccc(CC(=O)N[C@H](C)c2ccc(OCC(F)(F)F)cn2)cc1 [M01] ) has AUC equal to 8.11

Record summary for C[C@@H](NC(=O)Cc1ccc(C(C)(C)O)cc1)c1ccc(OCC(F)(F)F)cn1 [M02] : reported AUC = 31.7

---

TEST: in vivo
CONDITION_CONTEXT: male, Beagle, dog, plasma, po, 20 mg/kg/day
PROPERTY_LABEL: AUC (µM·h)
Entry rule: numbers only, all in µM·h.

Input CC(C)c1ccc(CC(=O)N[C@H](C)c2ccc(OCC(F)(F)F)cn2)cc1 [CX-8998] . Output AUC: 425

---

Test system: CYP3A4, CYP2C8, CYP2C9, CYP2D6, CYP1A2, CYP2C19, CYP2B6
Construct: other: human liver microsomes; other: human microsomes
TEST: CYP inhibition in human liver microsomes
Format: in vitro ADME
CONDITION_CONTEXT: human, human liver microsomes
PROPERTY_LABEL: IC50

Recorded result, CC(C)c1ccc(CC(=O)N[C@H](C)c2ccc(OCC(F)(F)F)cn2)cc1 [CX-8998] , IC50: 20 to 25 µM

---

TEST: 90-day oral toxicology in Beagle dogs
CONDITION_CONTEXT: female, Beagle, dog, in vivo, po, 10 mg/kg
Would you kindly list AUC for each of these molecules?

So for CC(CO)c1ccc(CC(=O)N[C@H](C)c2ccc(OCC(F)(F)F)cn2)cc1 (stereo partly shown) , the logged AUC turned out to be 2.19 µM·h

Record summary for C[C@@H](NC(=O)Cc1ccc(C(C)(C)O)cc1)c1ccc(OCC(F)(F)F)cn1 : reported AUC = 103 µM·h

Entry C=C(C)c1ccc(CC(=O)N[C@H](C)c2ccc(OCC(F)(F)F)cn2)cc1 , AUC reported as 38.6 µM·h

// CC(C(=O)O)c1ccc(CC(=O)N[C@H](C)c2ccc(OCC(F)(F)F)cn2)cc1 (stereo partly shown) : AUC value = 8.4 µM·h

---

Would you mind telling me the reported pIC50 of each entry?
TESTED_TARGET: Cav3.3 (Homo sapiens, UniProt Q9P0X4)
Construct: expressed in transfected cells; host or cells: HEK 293
Sequence (Q9P0X4 whole entry, species assumed): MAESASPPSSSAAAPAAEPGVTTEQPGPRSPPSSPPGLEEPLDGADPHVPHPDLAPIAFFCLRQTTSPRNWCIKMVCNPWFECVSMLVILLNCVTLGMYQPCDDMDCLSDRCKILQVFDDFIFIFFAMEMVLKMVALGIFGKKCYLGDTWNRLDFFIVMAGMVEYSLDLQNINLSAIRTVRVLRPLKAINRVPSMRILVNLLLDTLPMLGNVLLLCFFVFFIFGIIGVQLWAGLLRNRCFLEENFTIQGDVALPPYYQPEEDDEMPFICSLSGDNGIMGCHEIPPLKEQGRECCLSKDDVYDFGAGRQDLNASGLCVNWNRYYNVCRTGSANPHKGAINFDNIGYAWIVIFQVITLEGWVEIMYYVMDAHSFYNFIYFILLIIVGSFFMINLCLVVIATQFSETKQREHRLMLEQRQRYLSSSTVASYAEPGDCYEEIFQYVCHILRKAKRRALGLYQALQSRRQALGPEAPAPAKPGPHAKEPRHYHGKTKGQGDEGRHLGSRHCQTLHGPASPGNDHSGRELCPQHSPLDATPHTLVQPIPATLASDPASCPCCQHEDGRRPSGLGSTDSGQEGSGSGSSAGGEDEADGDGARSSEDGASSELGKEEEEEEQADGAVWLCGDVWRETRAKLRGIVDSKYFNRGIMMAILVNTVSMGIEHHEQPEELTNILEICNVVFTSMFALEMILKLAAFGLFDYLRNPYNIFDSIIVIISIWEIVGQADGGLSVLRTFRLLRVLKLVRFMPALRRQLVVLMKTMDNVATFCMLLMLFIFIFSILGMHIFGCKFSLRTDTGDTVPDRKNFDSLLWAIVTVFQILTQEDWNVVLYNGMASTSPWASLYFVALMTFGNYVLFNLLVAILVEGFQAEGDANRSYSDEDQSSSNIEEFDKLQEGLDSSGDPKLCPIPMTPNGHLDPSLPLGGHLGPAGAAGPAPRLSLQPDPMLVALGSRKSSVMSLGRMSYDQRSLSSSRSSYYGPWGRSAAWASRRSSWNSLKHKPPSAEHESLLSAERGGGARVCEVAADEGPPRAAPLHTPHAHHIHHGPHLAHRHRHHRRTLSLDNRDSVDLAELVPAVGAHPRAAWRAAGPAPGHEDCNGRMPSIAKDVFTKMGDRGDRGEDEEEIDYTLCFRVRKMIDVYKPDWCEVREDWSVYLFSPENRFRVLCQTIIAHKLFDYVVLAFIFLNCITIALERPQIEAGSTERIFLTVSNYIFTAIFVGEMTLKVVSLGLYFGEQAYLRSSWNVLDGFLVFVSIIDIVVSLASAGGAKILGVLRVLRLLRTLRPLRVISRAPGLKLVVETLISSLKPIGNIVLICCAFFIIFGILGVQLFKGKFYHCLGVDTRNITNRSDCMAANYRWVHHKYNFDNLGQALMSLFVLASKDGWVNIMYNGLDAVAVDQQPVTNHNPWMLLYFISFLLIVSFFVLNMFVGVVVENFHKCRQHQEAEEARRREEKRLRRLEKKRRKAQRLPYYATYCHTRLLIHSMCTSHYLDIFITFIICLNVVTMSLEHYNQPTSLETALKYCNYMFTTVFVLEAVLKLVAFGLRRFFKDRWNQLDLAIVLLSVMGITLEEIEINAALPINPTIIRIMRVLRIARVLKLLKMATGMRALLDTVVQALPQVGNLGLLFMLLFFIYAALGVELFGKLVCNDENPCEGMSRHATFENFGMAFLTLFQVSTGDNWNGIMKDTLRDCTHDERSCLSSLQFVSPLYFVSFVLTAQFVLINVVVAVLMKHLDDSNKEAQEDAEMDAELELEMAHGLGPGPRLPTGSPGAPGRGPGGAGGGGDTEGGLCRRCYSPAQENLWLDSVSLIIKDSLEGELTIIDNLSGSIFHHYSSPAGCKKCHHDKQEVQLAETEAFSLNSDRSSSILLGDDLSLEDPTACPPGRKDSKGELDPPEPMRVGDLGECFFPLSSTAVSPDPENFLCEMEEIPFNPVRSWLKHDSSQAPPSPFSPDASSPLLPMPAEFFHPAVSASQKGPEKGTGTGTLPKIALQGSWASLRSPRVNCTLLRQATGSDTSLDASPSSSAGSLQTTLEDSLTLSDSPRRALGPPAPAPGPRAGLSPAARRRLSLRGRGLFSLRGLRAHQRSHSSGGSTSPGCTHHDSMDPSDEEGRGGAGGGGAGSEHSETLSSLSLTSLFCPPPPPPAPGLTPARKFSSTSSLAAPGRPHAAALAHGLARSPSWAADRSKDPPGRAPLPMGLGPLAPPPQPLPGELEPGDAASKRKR
TEST: Cav3.3 FLIPR calcium influx assay (HEK 293 cells)
Format: cell-based
CONDITION_CONTEXT: Cav3.3 FLIPR assay, depolarized; read-out: Depolarized FLIPR potency
pIC50 field: float, defined as -log10 of concentration (mol/L).

Recorded pIC50 for C[C@@H](NC(=O)Cc1ccc(C(C)(C)O)cc1)c1ccc(OCC(F)(F)F)cn1 on Cav3.3 (Homo sapiens, UniProt Q9P0X4) was 7.77

Entry C=C(C)c1ccc(CC(=O)N[C@H](C)c2ccc(OCC(F)(F)F)cn2)cc1 , tested on Cav3.3 (Homo sapiens, UniProt Q9P0X4), has a reported pIC50 of 8.64

Considering CC(C(=O)O)c1ccc(CC(=O)N[C@H](C)c2ccc(OCC(F)(F)F)cn2)cc1 (stereo partly shown) , its pIC50 with Cav3.3 (Homo sapiens, UniProt Q9P0X4) was recorded as 6.02

Summary: CC(CO)c1ccc(CC(=O)N[C@H](C)c2ccc(OCC(F)(F)F)cn2)cc1 (stereo partly shown) , Cav3.3 (Homo sapiens, UniProt Q9P0X4), pIC50 = 7.72

---

TEST: Phase 1 single-dose pharmacokinetics (PN001, PN002/Part I, PN003, PN005)
Type: in vivo, human
CONDITION_CONTEXT: male, human, plasma, oral, 18 mg, PN001 Part 2, 18 mg, 1 dose; read-out: AUC0-24
PROPERTY_LABEL: AUC(0-t) (µM·h)
Dear colleague, please return just the value in µM·h, with no unit written.

response.value for CC(C)c1ccc(CC(=O)N[C@H](C)c2ccc(OCC(F)(F)F)cn2)cc1 [CX-8998] (field: AUC(0-t)) = 9.93

---

TEST: 90-day oral toxicology in rats
CONDITION_CONTEXT: both, Sprague-Dawley, rat, in vivo, po
PROPERTY_LABEL: NOAEL at 90 days (mg/kg/day)
The reply should contain only the number, in mg/kg/day.

Summary for this molecule, CC(C)c1ccc(CC(=O)N[C@H](C)c2ccc(OCC(F)(F)F)cn2)cc1 : NOAEL at 90 days is 300
